Just for reference, patent US20250136570A1 is where these values come from.

- Test target: Recombinant HDAC1 (Homo sapiens (Human))
- Sequence (Q13547 whole entry): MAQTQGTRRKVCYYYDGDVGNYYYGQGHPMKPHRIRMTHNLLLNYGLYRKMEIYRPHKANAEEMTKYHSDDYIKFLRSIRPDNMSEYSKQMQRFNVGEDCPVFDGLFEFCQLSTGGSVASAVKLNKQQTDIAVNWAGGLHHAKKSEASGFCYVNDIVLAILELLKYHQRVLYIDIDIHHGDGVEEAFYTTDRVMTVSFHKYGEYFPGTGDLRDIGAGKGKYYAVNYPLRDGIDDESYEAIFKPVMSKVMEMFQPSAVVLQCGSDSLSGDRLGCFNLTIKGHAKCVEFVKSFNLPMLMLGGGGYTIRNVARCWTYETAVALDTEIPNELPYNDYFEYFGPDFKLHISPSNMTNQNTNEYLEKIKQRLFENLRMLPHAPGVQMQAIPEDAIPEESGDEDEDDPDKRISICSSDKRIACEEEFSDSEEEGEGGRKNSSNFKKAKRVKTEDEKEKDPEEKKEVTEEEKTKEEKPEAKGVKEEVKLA
- Assay summary: HDAC1 inhibition, Fluor de Lys fluorescent enzyme assay
- Type: biochemical
- Details: 3 hours pre-incubation at room temp; 6 nM enzyme; 16 μM Fluor de Lys substrate; duplicate
Experimental endpoint: IC50

What value of IC50 has been reported for the following compound? N=S(=O)(c1ccc(C(=O)Nc2cc(-c3ccc(F)s3)ccc2N)cc1)C1CC1 (racemic)
< 100 nM

Consider the compound shown here: Cc1ncc(-c2ccc(N)c(NC(=O)c3ccc(S(C)(=N)=O)cc3)c2)s1 (centres unmarked) What is its recorded IC50?
100 to 500 nM

# lookup: IC50 of Cc1cncc(S(=N)(=O)c2ccc(C(=O)Nc3cc(-c4ccc(F)cc4)ccc3N)cc2)c1 (centres unmarked)
< 100 nM

Using the record for C[S@@](=N)(=O)c1ccc(C(=O)Nc2cc(-c3ccc(F)s3)ccc2N)cc1 , report its IC50.
< 100 nM
